# protocol.details: Human HepG2 cell viability assay in 384 well format
# Format: toxicity, cell-based
# Set-up: dose 125 nL, time 70.5 hour; concentration not given beside the values
# setup.conditions: HepG2 cells, read-out: Inhibition
Kindly supply the reported cytotoxicity at 70.5 h values for the records listed here.
Return type: number; implicit unit %.

What value of cytotoxicity at 70.5 h has been recorded for this entry: CSCc1noc(CNC(=O)[C@H]2CNC[C@@H](C(=O)N3CCCC3)C2)n1
-14.4

What value of cytotoxicity at 70.5 h has been recorded for this entry: CCCS(=O)(=O)Nc1ccc2c(c1)OCC(C)(C)C(=O)N2C
7.24

What value of cytotoxicity at 70.5 h has been recorded for this entry: Cc1ccc(C(=O)NCCNC(=O)N(C)C(C)c2ccccn2)cc1 (centres undefined)
-2.96

What value of cytotoxicity at 70.5 h has been recorded for this entry: CN(C)c1cnn(Cc2nc3ccccc3n2C)c(=O)c1
-12.8

What value of cytotoxicity at 70.5 h has been recorded for this entry: CCN1CCC(CC(=O)N2CCc3sc(C(=O)N(C)C)cc3C2)CC1
20.6

What value of cytotoxicity at 70.5 h has been recorded for this entry: CCC(=O)NCC1(O)CCC(C(C)(C)C)CC1 (centres undefined)
-4.59

What value of cytotoxicity at 70.5 h has been recorded for this entry: CCc1cnc2c(c1Nc1ccc(OC)cc1)c(=O)n(C)c(=O)n2C
21.4

What value of cytotoxicity at 70.5 h has been recorded for this entry: COc1ccc(CC2CN(C3CCSCC3)CCO2)cc1 (centres undefined)
1.2

What value of cytotoxicity at 70.5 h has been recorded for this entry: Cn1cnnc1C1CCCN(C(=O)NCCn2ccnc2)C1 (centres undefined)
-10.4

What value of cytotoxicity at 70.5 h has been recorded for this entry: Cc1cc(C(=O)N(C)Cc2nc(-c3ccccn3)no2)c(C)o1
-4.74

What value of cytotoxicity at 70.5 h has been recorded for this entry: O=C(NC1CCCN(c2ccc(OC(F)F)cc2)C1)c1cc[nH]n1 (centres undefined)
-11.9

What value of cytotoxicity at 70.5 h has been recorded for this entry: Cc1csc(C2CCCCN2C(=O)c2cn[nH]c2C)n1 (centres undefined)
16.7

What value of cytotoxicity at 70.5 h has been recorded for this entry: Cc1nc(CN2CCC(CNC(=O)C3(C#N)CCCC3)CC2)oc1C
-5.03

What value of cytotoxicity at 70.5 h has been recorded for this entry: O=C1C[C@H]2[C@@H](CCN2C(=O)c2ccccc2)N1CCN1CCOCC1
-5.41

What value of cytotoxicity at 70.5 h has been recorded for this entry: CC(C)c1nccn1C1CCCN(C(=O)c2ccc3c(c2)OCO3)C1 (centres undefined)
-12.1

What value of cytotoxicity at 70.5 h has been recorded for this entry: Cc1cccc2c1ccn2CCC(=O)Nc1c2c(nn1C)CSC2
-7.62

What value of cytotoxicity at 70.5 h has been recorded for this entry: Cc1ccc(C(=O)N(C)Cc2ccc(Br)s2)c(=O)[nH]1
2.28

What value of cytotoxicity at 70.5 h has been recorded for this entry: COC(=O)C1CCN(C(=O)c2ccc(N(C)S(C)(=O)=O)c(C)c2)CC1
-10.1

What value of cytotoxicity at 70.5 h has been recorded for this entry: COc1ccccc1C(=O)NC[C@H]1COCc2nc3c(C)cccc3n21
-1.28

What value of cytotoxicity at 70.5 h has been recorded for this entry: O=C(c1ccc(S(=O)(=O)N2CCSCC2)cc1)N1CCC(O)C1 (centres undefined)
-17.3

What value of cytotoxicity at 70.5 h has been recorded for this entry: COc1c(C)cnc(CN2CCOC(Cn3cncn3)C2)c1C (centres undefined)
-3.24

What value of cytotoxicity at 70.5 h has been recorded for this entry: CC(=O)N1CCC2(CCCN(C(=O)c3ccc(Cl)c(C(F)(F)F)c3)C2)C1 (centres undefined)
-14.2

What value of cytotoxicity at 70.5 h has been recorded for this entry: CCCc1nc(CN2CCCC2Cn2cncn2)cs1 (centres undefined)
17.1

What value of cytotoxicity at 70.5 h has been recorded for this entry: c1cnn(CCNCc2ccc(N3CCCCC3)cc2)c1
-13.6
